What inhibition was measured for each of the following?
target: Protein deacetylase HDAC6 (Homo sapiens) (UniProt Q9UBN7); settings: at 10 µM
Sequence (Q9UBN7 whole entry): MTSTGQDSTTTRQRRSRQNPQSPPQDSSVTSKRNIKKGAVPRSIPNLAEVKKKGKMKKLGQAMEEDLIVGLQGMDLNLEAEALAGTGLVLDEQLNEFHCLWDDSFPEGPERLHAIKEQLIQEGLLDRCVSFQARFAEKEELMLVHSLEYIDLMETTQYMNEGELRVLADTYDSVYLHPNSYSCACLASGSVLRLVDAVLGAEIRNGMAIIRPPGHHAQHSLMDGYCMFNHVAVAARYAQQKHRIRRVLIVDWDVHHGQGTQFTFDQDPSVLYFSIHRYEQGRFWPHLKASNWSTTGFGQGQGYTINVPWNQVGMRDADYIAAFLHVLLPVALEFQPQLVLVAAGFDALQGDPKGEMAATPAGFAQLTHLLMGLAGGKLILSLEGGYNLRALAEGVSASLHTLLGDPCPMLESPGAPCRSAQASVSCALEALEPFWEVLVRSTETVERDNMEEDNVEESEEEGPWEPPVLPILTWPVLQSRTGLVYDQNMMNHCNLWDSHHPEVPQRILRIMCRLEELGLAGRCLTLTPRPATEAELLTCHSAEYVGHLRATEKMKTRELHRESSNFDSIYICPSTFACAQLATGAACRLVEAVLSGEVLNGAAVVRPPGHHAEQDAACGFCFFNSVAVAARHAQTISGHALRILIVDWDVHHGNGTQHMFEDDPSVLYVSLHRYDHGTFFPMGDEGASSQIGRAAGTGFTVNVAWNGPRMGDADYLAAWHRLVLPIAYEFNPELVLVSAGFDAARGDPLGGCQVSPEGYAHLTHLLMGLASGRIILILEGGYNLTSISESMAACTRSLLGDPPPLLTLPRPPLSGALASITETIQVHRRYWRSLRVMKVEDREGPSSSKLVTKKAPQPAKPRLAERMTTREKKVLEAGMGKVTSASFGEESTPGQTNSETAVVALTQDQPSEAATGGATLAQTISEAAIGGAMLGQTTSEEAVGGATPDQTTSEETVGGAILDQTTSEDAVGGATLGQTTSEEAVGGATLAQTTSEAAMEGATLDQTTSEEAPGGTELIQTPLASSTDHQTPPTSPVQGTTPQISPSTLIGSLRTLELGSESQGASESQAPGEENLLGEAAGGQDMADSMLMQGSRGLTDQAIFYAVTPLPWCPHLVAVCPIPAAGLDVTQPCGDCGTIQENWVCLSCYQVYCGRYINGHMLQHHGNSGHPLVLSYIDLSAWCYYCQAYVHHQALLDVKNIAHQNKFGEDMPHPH
About 390 (7%) of roughly 5,600 compounds showed an effect of 50% or more. The sample holds strong results, similar compounds and a random draw of the others, so the mix is not that of the screen.
Write the numeric value and append its unit.

For orientation, consider the following solved cases.
compound=OC[C@H]1O[C@@H](Oc2cc(O)cc(/C=C/c3ccc(O)cc3)c2)[C@H](O)[C@@H](O)[C@@H]1O experimental_target="Protein deacetylase HDAC6 (Homo sapiens) (UniProt Q9UBN7)" experimental_value=31.5%
compound=N#CC1(c2ccc(NC(=O)c3cccnc3NCc3ccncc3)cc2)CCCC1 experimental_target="Protein deacetylase HDAC6 (Homo sapiens) (UniProt Q9UBN7)" experimental_value=51.4%

Could you report inhibition for every entry in the following list?
1. CCCCCN1CCC(C(N)=O)CC1
2. CCN(CC)C(=O)Nc1ccc(OCC(O)CNC(C)(C)C)c(C(C)=O)c1 (centres undefined)
3. O=C(O)[C@@H]1C[C@@H](O)CN1
4. CNc1cc2[nH]c(=O)n(-c3ccc(NC(=O)NS(=O)(=O)c4ccc(Cl)s4)cc3)c(=O)c2cc1F

1. 3.67%
2. 103%
3. 16.1%
4. 32.7%

Could you report inhibition for every entry in the following list?
1. CCCC(=O)Nc1ccc(OCC(O)CNC(C)C)c(C(C)=O)c1 (centres undefined)
2. CN1C(=O)C(F)=C[C@]2(C)[C@H]3CC[C@]4(C)[C@@H](C(=O)NCc5nc6cccnc6[nH]5)CC[C@H]4[C@@H]3CC[C@@H]12
3. CC(C)OC(=O)c1cc2c(OCC(O)CNC(C)(C)C)cccc2[nH]1 (centres undefined)

["-5.99%", "-0.34%", "17%"]

Could you report inhibition for every entry in the following list?
1. CCNC(=O)[C@@H]1CCCN1C(=O)[C@H](CCCNC(=N)N)NC(=O)[C@H](CC(C)C)NC(=O)[C@@H](CC(C)C)NC(=O)[C@H](Cc1ccc(O)cc1)NC(=O)[C@H](CO)NC(=O)[C@H](Cc1c[nH]c2ccccc12)NC(=O)[C@H](Cc1c[nH]cn1)NC(=O)[C@@H]1CCC(=O)N1
2. O[C@@H](COc1cccc2ncccc12)CN1CCN([C@@H]2c3ccccc3[C@@H]3[C@H](c4ccccc42)C3(F)F)CC1
3. CC(CCCCC(=O)Nc1ccc(C(F)(F)F)cc1)NCCc1c[nH]cn1 (centres undefined)
4. N=C(N)SCCc1ccc(OCc2ccc([N+](=O)[O-])cc2)cc1
5. COc1cc(C(=O)O)ccc1NC(=O)[C@@H]1N[C@@H](CC(C)(C)C)[C@](C#N)(c2ccc(Cl)cc2F)[C@H]1c1cccc(Cl)c1F
6. NC(=O)c1cccc(-c2cc(Nc3ccc(OC(F)(F)F)cc3)ncn2)c1
7. CC1(C)CNc2cc(NC(=O)c3cccnc3NCc3ccncc3)ccc21

["33.6%", "10.7%", "3.94%", "9.62%", "11.2%", "-8.36%", "87.1%"]

Could you report inhibition for every entry in the following list?
1. Cn1cc(-c2ccncc2)c(-c2ccc(OCc3ccc4ccccc4n3)cc2)n1
2. CCN(CC)C(=S)S
3. CC/C(=C(\c1ccc(O)cc1)c1ccc(OCCNC)cc1)c1ccccc1

1. 4.18%
2. 13.4%
3. -4.99%
